tested on: PfSIP2 AP2 domain 1 (GST-tagged); test: gcPBM binding intensity (ln(normalized median fluorescence intensity)); higher = stronger DNA binding
Over roughly 25,000 sequences, “ln(normalized median fluorescence intensity)” has its median near 7.1; the highest 2% begin near 10. Only a selection was taken, and the highest values are over-represented in it overall.
gcPBM binding intensity (ln) reference
Answer with a bare number; do not write a unit.

Here's what some known entries look like.
Lookup: gcPBM binding intensity (ln) / PfSIP2 AP2 domain 1 (GST-tagged) / `TTTTAAGGTGTGAAGGTGCAAAAAGGTAAATAGGAA` 10.8

Return gcPBM binding intensity (ln) measured with PfSIP2 AP2 domain 1 (GST-tagged) given this sequence: ATATTATATTATTAATGTACATATATATAATTTTAA [XGTACX_site4974] 7.05

So what gcPBM binding intensity (ln) did TAGCTGTTCAAAAAATGTACATATATAATATATATA [XGTACX_site5842] get with PfSIP2 AP2 domain 1 (GST-tagged)? 7.49

***
Form field - read-out: gcPBM binding intensity (ln); system: PfSIP2 AP2 domain 1 (GST-tagged); submitted item: TACTTTTATATGAATACACACAGGAATATAAATATG [CACACA_site7647] 7.2

Tell me reported gcPBM binding intensity (ln) for TAAAAAATAAGATATACACACATATATTTATTTATA [CACACA_site7158] , tested with PfSIP2 AP2 domain 1 (GST-tagged). 6.72

Any idea what gcPBM binding intensity (ln) came out for AAAAAAAAAAAAAGTGCACACGATTTAAGGCCTATA [CACACA_site2823] on PfSIP2 AP2 domain 1 (GST-tagged)? 10.9

Identify the measured gcPBM binding intensity (ln) of TTTTTTTCAATATTTGCACACGATTAAAATATTTAA [CACACA_site5266] for PfSIP2 AP2 domain 1 (GST-tagged). 7.28

###

Overview of recorded gcPBM binding intensity (ln) for various sequences
system: PfSIP2 AP2 domain 1 (GST-tagged); assay: gcPBM binding intensity (ln(normalized median fluorescence intensity)); higher = stronger DNA binding
In all, about 25,000 sequences were measured (“ln(normalized median fluorescence intensity)”: median about 7.1, highest 2% from about 10 on). Shown is part of a subset that was picked to be rich in the highest values.
Enter a number only.

Query gcPBM binding intensity (ln) on PfSIP2 AP2 domain 1 (GST-tagged) for TTTGCACCGTTTAAGTGTACAGAATTATGACATATA [XGTACX_site6735] 11.2

---
For the record TACTGTATTATAATTATGATTGACGAAATTAAAAAT [GTGCAC_negctrl_site358] , what value of gcPBM binding intensity (ln) is listed for PfSIP2 AP2 domain 1 (GST-tagged)? 6.91

Form: Entry = AAAAAAAAAACATACACACACACAAATATTTATATA [CACACA_site437] | System = PfSIP2 AP2 domain 1 (GST-tagged) | gcPBM binding intensity (ln) = ____ 6.94

Query for PfSIP2 AP2 domain 1 (GST-tagged): what gcPBM binding intensity (ln) does the record show for AGATATATATATAGGTGTACTGGAATGAAATTGTTT [XGTACX_site8200] ? 6.94

Give the reported gcPBM binding intensity (ln) for `TTTTTGTTATTTTTAGTGCACATTTAAGGGTGTATT` (system: PfSIP2 AP2 domain 1 (GST-tagged)). 10.4

Query the reported gcPBM binding intensity (ln) for PfSIP2 AP2 domain 1 (GST-tagged); item: ATATGTTATATAAATATATATATATATATATATATA [TGCATGCA_negctrl_site594] 9.55

Reported gcPBM binding intensity (ln) for PfSIP2 AP2 domain 1 (GST-tagged), given ATTAAAAATATAGTCACACATACACCCATATATATT [CACACA_site5394] ? 6.92

###

Each entry below carries its reported gcPBM binding intensity (ln).
test system: PfSIP2 AP2 domain 1 (GST-tagged); experiment: gcPBM binding intensity (ln(normalized median fluorescence intensity)); higher = stronger DNA binding
The full ranking holds about 25,000 sequences; the median of “ln(normalized median fluorescence intensity)” is about 7.1, and the highest 2% start at about 10. The sample holds the highest values, similar sequences and a random draw of the others, so the mix is not that of the screen.
Number only, please.

# example entries with known answers
Enter reported gcPBM binding intensity (ln) observed with PfSIP2 AP2 domain 1 (GST-tagged) for TTATTATTATAAAATTGTACTTGGTATATTAACATA [XGTACX_site5829] 6.98

Give PfSIP2 AP2 domain 1 (GST-tagged) gcPBM binding intensity (ln) for TTTGTAACTTCTTTCACACATATATATATATATATA [CACACA_site5603] 9.76

Recorded gcPBM binding intensity (ln) for AAAACATTGTTGAACTGTTTTATTTATAAATATAAG [XGTACX_negctrl_site393] with PfSIP2 AP2 domain 1 (GST-tagged), please? 7.02

Item ATTTTTTTTTTTTTTTTAAGACAAACTCTTAATTTA [CACACA_negctrl_site1389] with PfSIP2 AP2 domain 1 (GST-tagged) - gcPBM binding intensity (ln)? 6.78

Now look at this entry.
Param readout= gcPBM binding intensity (ln); system= PfSIP2 AP2 domain 1 (GST-tagged); entry= ACGAAAAGATATATATGTACATATATTAAAAAAAAA [XGTACX_site1517] ; returns value. 7.01

###

The following sequences are shown together with reported gcPBM binding intensity (ln) values.
system: PfSIP2 AP2 domain 1 (GST-tagged); test: gcPBM binding intensity (ln(normalized median fluorescence intensity)); higher = stronger DNA binding
In all, about 25,000 sequences were measured (“ln(normalized median fluorescence intensity)”: median about 7.1, highest 2% from about 10 on). The sample as a whole holds a higher share of the highest values than the screen did.
No unit in the answer, please; the number alone is enough.

Some solved entries appear below for comparison.
GET /values?readout=gcPBM binding intensity (ln)&item= TTTATGCACGCGTGCACACACATATGAAAAAAGGTA [CACACA_site3315] 10.4

Find the recorded gcPBM binding intensity (ln) belonging to AAAAAAAAAAAACACACACACACACCCAAATATATA [CACACA_site150] and report it. 7.14

Query (sequence): TATATATATAATGTTTGTACATATTAAATATATATG [XGTACX_site407] ; field requested: gcPBM binding intensity (ln) 8.3

***
What value of measured gcPBM binding intensity (ln) is listed for ATATTAAAATTTTAATGTACATGCGTATGTAGGAAT [XGTACX_site1673] ? 7.39

###

test system: PfSIP2 AP2 domain 1 (GST-tagged); experiment: gcPBM binding intensity (ln(normalized median fluorescence intensity)); higher = stronger DNA binding
Over roughly 25,000 sequences, “ln(normalized median fluorescence intensity)” has its median near 7.1; the highest 2% begin near 10. The full list was thinned out, with the highest values kept by preference.
reported-endpoint: gcPBM binding intensity (ln)

Recorded gcPBM binding intensity (ln) for TTTTTATGGACTATGGTGCATTATATATAAATGAAA [GTGCAC_site9557] , please? 10.6

# query: gcPBM binding intensity (ln) of entry `AAATATTATAAAAAGGTGCATTTTTATTATATGAGT` 11

For the sequence AATATAAAAAGGCACACACACAAAAAAAAAAAAAAA [CACACA_site896] , what gcPBM binding intensity (ln) is on record? 7.13

GET /values?readout=gcPBM binding intensity (ln)&item= `TACAGTTCAATGAAGGTGCAATTAATATATAAAATA` 10.2

Dear colleague, I am looking for the recorded gcPBM binding intensity (ln) of the following sequence: TATATATATAAGTGCACACTGAACCAAGAAAATTAT [CACACA_site3008] 10.5

Continuing:
Give the measured gcPBM binding intensity (ln) of AATAATAATAGAAACACACACACATTTTTAAGAATA [CACACA_site6692] . 6.74

Would you kindly share the measured gcPBM binding intensity (ln) for TATATATATATAAGTGCACACTGAACCAAGAAAATT [CACACA_site5637] ? 9.97

// returns reported gcPBM binding intensity (ln) for input `ATATTTTATGTAAAGGTGCAAAACAACATTAAAAAA` 10.5

###

test system: PfSIP2 AP2 domain 1 (GST-tagged); assay: gcPBM binding intensity (ln(normalized median fluorescence intensity)); higher = stronger DNA binding
Over roughly 25,000 sequences, “ln(normalized median fluorescence intensity)” has its median near 7.1; the highest 2% begin near 10. The sample as a whole holds a higher share of the highest values than the screen did.
Below is a list of entries, each paired with its recorded gcPBM binding intensity (ln) value.
Just the number, please.

I have this sequence here, AAAAAAAAAAAAGAAACACACACATTTGTATATAAT [CACACA_site8648] , and I need its recorded gcPBM binding intensity (ln). 6.93

Which gcPBM binding intensity (ln) is listed for CATATAATAAATAATTGTACTTGATATAATATTATG [XGTACX_site3562] ? 6.91

For the sequence shown here, AAAATTATACACACACGTACATATAAATAGAAATAT [XGTACX_site1753] , give the reported gcPBM binding intensity (ln). 7.12

Which gcPBM binding intensity (ln) value is on record for AAAAAAAAAAAAGAAACACACATATATATATATATA [CACACA_site140] ? 8.95

Give its gcPBM binding intensity (ln) value. Item: `AAAAGTCTCTTTTTAGTGCACATTTTATTTAAATAT` 10.2

Requested read-out: gcPBM binding intensity (ln). Entry: TATATATATATATATACATGCATATTTTTTATTTTT [TGCATGCA_site464] 9.67

gcPBM binding intensity (ln) lookup needed for ACAAAAAGTTACATACGTACGTAAAATTGTAATAAA [XGTACX_site2358] , thanks. 6.96

# gcPBM binding intensity (ln) lookup, item TATATATATATATGTGCACACATAATAAAAAAAAAA [CACACA_site3830] 9.64
